Data origin: patent US11479551B2

- tested-on: PRMT5/MEP50 complex (Homo sapiens (Human))
- Sequence (O14744 2-637): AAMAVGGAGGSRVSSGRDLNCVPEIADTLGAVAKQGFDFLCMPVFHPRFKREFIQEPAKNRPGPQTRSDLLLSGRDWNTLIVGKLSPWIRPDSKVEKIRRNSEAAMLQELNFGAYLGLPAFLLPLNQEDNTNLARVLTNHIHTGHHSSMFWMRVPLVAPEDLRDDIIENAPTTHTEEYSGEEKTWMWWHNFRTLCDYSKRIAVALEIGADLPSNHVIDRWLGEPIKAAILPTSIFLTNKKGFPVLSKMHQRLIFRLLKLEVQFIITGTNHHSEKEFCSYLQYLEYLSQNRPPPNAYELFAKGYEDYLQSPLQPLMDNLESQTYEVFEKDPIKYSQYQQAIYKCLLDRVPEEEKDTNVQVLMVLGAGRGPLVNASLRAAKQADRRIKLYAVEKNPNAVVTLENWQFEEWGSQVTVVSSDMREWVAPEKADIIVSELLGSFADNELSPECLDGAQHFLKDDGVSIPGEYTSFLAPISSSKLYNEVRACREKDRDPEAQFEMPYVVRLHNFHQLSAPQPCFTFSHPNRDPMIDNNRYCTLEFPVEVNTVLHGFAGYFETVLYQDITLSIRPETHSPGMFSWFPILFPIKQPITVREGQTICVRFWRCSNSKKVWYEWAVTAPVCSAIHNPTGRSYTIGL
- Sequence (Q9BQA1 2-342 partner): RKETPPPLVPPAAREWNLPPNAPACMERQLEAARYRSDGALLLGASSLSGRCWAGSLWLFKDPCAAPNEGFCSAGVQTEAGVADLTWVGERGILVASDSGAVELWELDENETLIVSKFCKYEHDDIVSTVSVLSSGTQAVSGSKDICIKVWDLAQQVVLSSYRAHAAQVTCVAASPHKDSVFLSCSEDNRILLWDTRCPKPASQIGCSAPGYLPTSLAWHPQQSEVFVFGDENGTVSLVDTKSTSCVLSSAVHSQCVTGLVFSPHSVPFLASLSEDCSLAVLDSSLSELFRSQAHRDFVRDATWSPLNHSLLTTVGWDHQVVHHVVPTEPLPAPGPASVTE
- test-protocol: PRMT5:MEP50 FlashPlate Assay (histone H4 peptide substrate, plus and minus MTA)
- Format: biochemical
- test-conditions: IC50 + 2 μM MTA (nM), in the presence of 2 μM MTA
readout-kind: IC50 (nM)

{"compound": "NCc1n[nH]c(=O)c2cc(-c3ccccn3)ccc12", "IC50 / nM": 39000}
{"compound": "CN(c1ccccc1)c1cncc(-c2ccc3c(=O)[nH]nc(CN)c3c2)c1", "IC50 / nM": 4}
{"compound": "CCc1c[nH]c2ncc(-c3ccc4c(=O)[nH]nc(CN)c4c3)cc12", "IC50 / nM": 16}
{"compound": "NCc1n[nH]c(=O)c2ccc(-c3cncc(CO)c3)cc12", "IC50 / nM": 56}
{"compound": "Cc1ccc(Oc2cncc(-c3ccc4c(=O)[nH]nc(CN)c4c3)c2)c(C)c1Cl", "IC50 / nM": 1.3}
{"compound": "Cc1ncc(-c2ccc3c(=O)[nH]nc(CN)c3c2)cn1", "IC50 / nM": 5000}

A: NCc1n[nH]c(=O)c2ccc(-c3cnc[nH]3)cc12
B: Cn1ncc(-c2ccc3c(=O)[nH]nc(CN)c3c2)c1-c1ccc(Cl)cc1
C: NCc1n[nH]c(=O)c2ccc(-c3cncc(Oc4ccncc4)c3)cc12
D: NCc1n[nH]c(=O)c2ccc(-c3cnc4ccc(OC(F)(F)F)cn34)cc12
In: Put the items in sequence by IC50, from largest down. Please list the labels in the order you were asked to rank them.
Out: A, C, D, B
(A: 80000 nM, C: 490 nM, D: 25 nM, B: 3.9 nM)

a: CCCc1cncc(-c2ccc3c(=O)[nH]nc(CN)c3c2)c1
b: NCc1n[nH]c(=O)c2ccc(-c3cnn4ccccc34)cc12
In: I'm curious whether a or b has the smaller IC50 number. Which is it? Answer format: the label of the selected item.
Out: b
(b: 13 nM, a: 73 nM)

----------
- tested-on: PRMT5/MEP50 complex (Homo sapiens (Human))
- test-protocol: PRMT5:MEP50 HotSpot Assay (full-length histone H2A substrate, plus and minus MTA)
- Assay type: biochemical
- test-conditions: IC50 + 2 μM MTA, in the presence of 2 μM MTA
pIC50: −log10 of the molar value.
readout-kind: pIC50

a: Cn1ncc(-c2ccc3c(=O)[nH]nc(CN)c3c2)c1-c1ccc2c(Cl)cccc2c1C#N
b: CCc1ccc(C#N)c(-c2c(-c3ccc4c(=O)[nH]nc(CN)c4c3)cnn2C)c1
In: In terms of reported pIC50, does a or b have the smaller number? Kindly give the label for the entry you pick.
Out: b
(b: 6.00, a: 6.90)

A: CCOc1cccc(-c2c(-c3cc(C)c4c(=O)[nH]nc(CN)c4c3)cnn2C)c1C#N
B: COc1cccc(-c2c(-c3ccc4c(=O)[nH]nc(CN)c4c3)cnn2C)c1
In: Out of A and B , name the one with the higher pIC50. Identify your pick by its label.
Out: B
(B: 6.07, A: 5.71)

----------
- tested-on: PRMT5/MEP50 complex (Homo sapiens (Human))
- test-protocol: PRMT5:MEP50 FlashPlate Assay (histone H4 peptide substrate, plus and minus MTA)
- Assay type: biochemical
- test-conditions: IC50 + 2 μM MTA (nM), in the presence of 2 μM MTA
readout-kind: IC50 (nM)

Sample answers from the record:
{"smiles-text": "Cc1ccc(-c2c(-c3ccc4c(=O)[nH]nc(CN)c4c3)cnn2C)c(C#N)c1", "tested-on": "PRMT5/MEP50 complex (Homo sapiens (Human))", "IC50 [nM]": 0.5}
{"smiles-text": "N#Cc1cncc(-c2ccc3c(=O)[nH]nc(CN)c3c2)c1", "tested-on": "PRMT5/MEP50 complex (Homo sapiens (Human))", "IC50 [nM]": 3200}
{"smiles-text": "COCc1c[nH]c2ncc(-c3ccc4c(=O)[nH]nc(CN)c4c3)cc12", "tested-on": "PRMT5/MEP50 complex (Homo sapiens (Human))", "IC50 [nM]": 0.6}

A: NCc1n[nH]c(=O)c2ccc(-c3cnc4cnccn34)cc12
B: NCc1n[nH]c(=O)c2ccc(-c3cncc(Oc4ncccn4)c3)cc12
In: Between A and B , whose recorded IC50 is greater? Write down the label attached to your selection.
Out: A
(A: 1700 nM, B: 230 nM)

1: Cc1c(-c2ccc3c(=O)[nH]nc(CN)c3c2)cnn1C
2: N#Cc1cc(Cl)ccc1-c1cncc(-c2ccc3c(=O)[nH]nc(CN)c3c2)c1
In: For this pair, 1 and 2 , which shows a numerically higher IC50? # reply format: chosen label
Out: 1
(1: 33 nM, 2: 3.1 nM)

P: N#Cc1c[nH]c2ncc(-c3ccc4c(=O)[nH]nc(CN)c4c3)cc12
Q: CC(C)CCn1cc(-c2ccc3c(=O)[nH]nc(CN)c3c2)cn1
In: Pick the one with the larger IC50: P vs Q # respond with the chosen item's label
Out: Q
